# experimental-system: Muscarinic acetylcholine receptor (Rattus norvegicus) (UniProt P08482+P08483+P08485+P08911+P10980)
# method: Percent inhibition towards muscarinic receptor in rat neocortex using 0.1 nM [3H]cis-methyldioxolane receptor binding assay (RCMD)
For each record, write down the corresponding inhibition.
Value expressed in %; do not type the unit.

For record CC(C=O)CC#CCN1CCCC1 (stereo not given) the listed inhibition is 1

For record CO/N=C(\C)CCC#CCN(C)C the listed inhibition is 5

For record CO/N=C(\C)C(C)CC#CCN(C)C (stereo not given) the listed inhibition is 5

For record CO/N=C(\C)CCC#CCN1CCCC1 the listed inhibition is 5

For record CC(C=O)CC#CCN(C)C (stereo not given) the listed inhibition is 0

For record CO/N=C(\C)C(C)CC#CCN1CCCC1 (stereo not given) the listed inhibition is 21

For record C/C(=N\O)C(C)CC#CCN(C)C (stereo not given) the listed inhibition is 12

For record C/C(=N\O)C(C)CC#CCN1CCCC1 (stereo not given) the listed inhibition is 21

For record CO/N=C/C(C)CC#CCN(C)C (stereo not given) the listed inhibition is 6

For record CO/N=C/C(C)CC#CCN1CCCC1 (stereo not given) the listed inhibition is 27
